Assay: Pharmacokinetic evaluation in mice
Type: in vivo, CD-1 mice
Conditions: male, CD-1, mouse, plasma, intravenous injection 0.5 mg/kg, read-out: Tissue distribution Vdss
Structures can show the parent of a compound that is named as a salt.
readout_kind: Vd (L/kg)

a: Cc1cc(Nc2ncnn3cc(OCCN4CCCC4)c(C)c23)c(=O)n2c1C(=O)NC21CCCCC1 [Compound 1 (hydrochloride)]
b: Cc1cc(Nc2ncnn3cc(OCCN4CCC(F)(F)C4)c(C)c23)c(=O)n2c1C(=O)NC21CCCCC1
Input: Just tell me: smaller Vd value, a or b ? Provide the label of your selected option as the answer.
Output: b

Where these numbers come from: patent US12492215B2
